The reported measurements were obtained from patent US12195427B2.

- target_under_test: MASP-2 CCP2-SP (Homo sapiens (Human), UniProt O00187)
- Sequence (O00187 445-686): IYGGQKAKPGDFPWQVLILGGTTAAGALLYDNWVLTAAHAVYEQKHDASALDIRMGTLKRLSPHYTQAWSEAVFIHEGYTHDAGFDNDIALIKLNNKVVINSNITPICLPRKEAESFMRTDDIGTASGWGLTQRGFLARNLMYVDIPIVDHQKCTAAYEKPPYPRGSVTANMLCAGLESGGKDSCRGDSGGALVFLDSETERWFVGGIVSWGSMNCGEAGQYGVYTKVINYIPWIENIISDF
- Sequence (O00187 364-432 partner): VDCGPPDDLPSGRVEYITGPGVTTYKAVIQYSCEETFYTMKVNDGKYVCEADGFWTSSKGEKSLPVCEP
- protocol_details: MASP-2 co-crystallization, X-ray crystallography and structure analysis (H-bonds, van der Waals contacts)
- test_conditions: Table A2-9; ARG 630; AA atoms CG, CZ
test_readout: van der Waals contact distance, MASP-2 amino acid atom to compound atom

INSERT INTO measurements (compound, observed_result) VALUES
  ('Cc1nc(N)ccc1CNC(=O)[C@H](C)NC(=O)[C@H]1C[C@@H](c2cccc3ccccc23)CCN1', 3.47),
  ('Cc1nc(N)ccc1CNC(=O)[C@H](C)NC(=O)c1cc(Cc2ccccc2)n[nH]1', 3.86),
  ('C[C@H](NC(=O)[C@H](N)CCc1cccc(Cl)c1)C(=O)NCc1ccc(C(=N)N)cc1', 3.76),
  ('Cc1nc(N)ccc1CNC(=O)[C@H](C)NC(=O)[C@H]1C[C@H](Cc2ccc(-c3ccccc3)cc2)CN1', 3.81),
  ('C[C@H](NC(=O)[C@H](N)CCc1cc(Cl)cc(Cl)c1)C(=O)NCc1ccc(C(=N)N)cc1', 3.85),
  ('C[C@H](NC(=O)[C@H](N)CCc1ccccc1)C(=O)NCc1ccc(N)nc1', 3.61),
  ('C[C@H](NC(=O)[C@H]1C[C@H](c2ccccc2)CN1)C(=O)NCc1ccc2c(N)nccc2c1', 3.64),
  ('Cc1nc(N)ccc1CNC(=O)[C@H](C)NC(=O)[C@H]1C[C@H](Cc2ccc3ccccc3c2)CN1', 3.75),
  ('C[C@H](NC(=O)[C@H]1C[C@H](Cc2ccccc2)CN1)C(=O)NCc1cnc2[nH]cc(Cl)c2c1', 3.89),
  ('CC(=O)Nc1ccc(CCN[C@H](CCc2ccccc2)C(=O)N[C@@H](C)C(=O)NCc2ccc(C(=N)N)cc2)cc1', 3.52),
  ('C[C@H](NC(=O)[C@H]1C[C@H](c2ccccc2)CN1)C(=O)NCc1ccc(N)nc1', 3.83),
  ('C[C@H](NC(=O)[C@H]1C[C@@H](c2ccccc2)CCN1)C(=O)NCc1ccc(C(=N)N)cc1 (stereo in doubt)', 3.55);

----------
- target_under_test: MASP-2 CCP2-SP (Homo sapiens (Human), UniProt O00187)
- protocol_details: MASP-2 co-crystallization, X-ray crystallography and structure analysis (H-bonds, van der Waals contacts)
- test_conditions: Table A6-1 pharmacophore angle; all compounds with protonatable center N1 except Methyl-amino-pyridine
Below, each of the molecules is paired with its reported A(N1, CA1, O1) a) value.
test_readout: A(N1, CA1, O1) a)

INSERT INTO assay_data (molecule, target_under_test, observed_result) VALUES
  ('C[C@H](NC(=O)[C@@H](CCc1ccccc1)NCc1ccc(N2CCOCC2)cc1)C(=O)NCc1ccc(C(=N)N)cc1', 'MASP-2 CCP2-SP (Homo sapiens (Human), UniProt O00187)', 168.87),
  ('C[C@H](NC(=O)[C@@H](CCc1ccccc1)NCc1ccc(C(=O)N2CCOCC2)cc1)C(=O)NCc1ccc(C(=N)N)cc1.Cl.Cl', 'MASP-2 CCP2-SP (Homo sapiens (Human), UniProt O00187)', 171.50),
  ('CNC(=O)c1ccc2c(=O)n(Cc3ccccc3)c(=O)n(CC(=O)NCc3ccc(C(=N)N)cc3)c2c1', 'MASP-2 CCP2-SP (Homo sapiens (Human), UniProt O00187)', 169.37),
  ('C[C@H](NC(=O)[C@H](N)CCc1cccc(Cl)c1)C(=O)NCc1ccc(C(=N)N)cc1', 'MASP-2 CCP2-SP (Homo sapiens (Human), UniProt O00187)', 163.55),
  ('C[C@H](NC(=O)[C@@H](CCc1ccccc1)NCCCc1ccc(O)cc1)C(=O)NCc1ccc(C(=N)N)cc1.Cl.Cl', 'MASP-2 CCP2-SP (Homo sapiens (Human), UniProt O00187)', 162.28),
  ('CC(NC(=O)C(CCc1ccccc1)NCCCc1ccc(O)cc1)C(=O)NCc1ccc(C(=N)N)cc1.Cl.Cl (stereo not drawn)', 'MASP-2 CCP2-SP (Homo sapiens (Human), UniProt O00187)', 162.28),
  ('C[C@H](NC(=O)[C@H]1C[C@@H](c2ccccc2)CCN1)C(=O)NCc1ccc(C(=N)N)cc1 (stereo in doubt)', 'MASP-2 CCP2-SP (Homo sapiens (Human), UniProt O00187)', 165.45),
  ('C[C@H](NC(=O)[C@H](N)CCCc1ccccc1)C(=O)NCc1ccc(C(=N)N)cc1.Cl.Cl [1042_1]', 'MASP-2 CCP2-SP (Homo sapiens (Human), UniProt O00187)', 158.11),
  ('C[C@H](NC(=O)[C@H](N)CCCc1ccccc1)C(=O)NCc1ccc(C(=N)N)cc1.Cl.Cl [1042_2]', 'MASP-2 CCP2-SP (Homo sapiens (Human), UniProt O00187)', 164.17),
  ('C[C@H](NC(=O)[C@H](N)CCc1ccccc1)C(=O)NCc1ccc(C(=N)N)cc1', 'MASP-2 CCP2-SP (Homo sapiens (Human), UniProt O00187)', 163.32),
  ('Cc1cnc(NCCc2ccccc2)c(=O)n1CC(=O)NCc1ccc2nc(N)[nH]c2c1', 'MASP-2 CCP2-SP (Homo sapiens (Human), UniProt O00187)', 173.84),
  ('C[C@H](NC(=O)[C@H]1Cc2c([nH]c3ccccc23)CN1)C(=O)NCc1ccc(C(=N)N)cc1.Cl.Cl [1097_2]', 'MASP-2 CCP2-SP (Homo sapiens (Human), UniProt O00187)', 163.92),
  ('C[C@H](NC(=O)[C@H]1C[C@H](Cc2ccccc2)CN1)C(=O)NCc1ccc(C(=N)N)cc1.Cl.Cl [1306_2]', 'MASP-2 CCP2-SP (Homo sapiens (Human), UniProt O00187)', 161.00),
  ('C[C@H](NC(=O)[C@H](N)C1Cc2ccccc2C1)C(=O)NCc1ccc2nc(N)[nH]c2c1', 'MASP-2 CCP2-SP (Homo sapiens (Human), UniProt O00187)', 176.16),
  ('CC(NC(=O)C(CCc1ccccc1)NCc1ccc(C(=O)N2CCOCC2)cc1)C(=O)NCc1ccc(C(=N)N)cc1.Cl.Cl (stereo not drawn)', 'MASP-2 CCP2-SP (Homo sapiens (Human), UniProt O00187)', 174.13);

----------
Entries and their d(CA5,N2)
- target_under_test: MASP-2 CCP2-SP (Homo sapiens (Human))
- protocol_details: MASP-2 co-crystallization, X-ray crystallography and structure analysis (H-bonds, van der Waals contacts)
- Set-up: unit not given beside the values
- test_conditions: Table A5-2 pharmacophore distance, S3/S4 region
- Description: This example illustrates the preparation of recombinant MASP-2 protein, based on UniProt O00187, human mannan-binding lectin serine protease 2. Expression constructs for human MASP-2 CCP2-SP and CCP2-SP-6HIS were generated for recombinant expression in E. coli cells. […]
test_readout: d(CA5,N2)

INSERT INTO measurements (compound, observed_result) VALUES
  ('C[C@H](NC(=O)[C@H]1Cc2c([nH]c3ccccc23)CN1)C(=O)NCc1ccc(C(=N)N)cc1.Cl.Cl [1097_2]', 4.50),
  ('N=C(N)c1ccc(CNC(=O)[C@@H]2CCN2C(=O)[C@H]2Cc3ccccc3CN2)cc1 [compound 1034]', 3.72),
  ('Cc1nc(N)ccc1CNC(=O)C(C)NC(=O)[C@H]1C[C@H](c2cccc(-c3ccccc3)c2)CN1 (stereo in doubt) [compound 1360]', 5.07),
  ('C[C@H](NC(=O)[C@@H](CCc1ccccc1)NCc1ccc(C(=O)N2CCOCC2)cc1)C(=O)NCc1ccc(C(=N)N)cc1.Cl.Cl [1153_B]', 3.75),
  ('C[C@H](NC(=O)[C@H]1Cc2c([nH]c3ccccc23)CN1)C(=O)NCc1ccc(C(=N)N)cc1.Cl.Cl [1097_1]', 4.50);

----------
- target_under_test: MASP-2 CCP2-SP (Homo sapiens (Human), UniProt O00187)
- protocol_details: MASP-2 co-crystallization, X-ray crystallography and structure analysis (H-bonds, van der Waals contacts)
- test_conditions: Table A4-2; element H4
- Excerpt: This example illustrates the preparation of recombinant MASP-2 protein, based on UniProt O00187, human mannan-binding lectin serine protease 2. Expression constructs for human MASP-2 CCP2-SP and CCP2-SP-6HIS were generated for recombinant expression in E. coli cells. […]
test_readout: Ligand-pharmacophore element distance, pharmacophore element H4

INSERT INTO results (compound, target_under_test, observed_result) VALUES
  ('N=C(N)c1ccc(CNC(=O)[C@@H]2CCN2C(=O)[C@H]2Cc3ccccc3CN2)cc1 [compound 1034]', 'MASP-2 CCP2-SP (Homo sapiens (Human), UniProt O00187)', 3.56),
  ('O=c1oc(-c2ccccc2[N+](=O)[O-])nc2ccccc12 [compound 14]', 'MASP-2 CCP2-SP (Homo sapiens (Human), UniProt O00187)', 1.82),
  ('C[C@H](NC(=O)[C@H](N)CCc1ccccc1)C(=O)NCc1ccc(C(=N)N)cc1 [compound 1024]', 'MASP-2 CCP2-SP (Homo sapiens (Human), UniProt O00187)', 3.21),
  ('N=C(N)c1ccc(CNC(=O)[C@@H]2CCN2C(=O)[C@H](NCC(=O)O)C2Cc3ccccc3C2)cc1 [compound 1129]', 'MASP-2 CCP2-SP (Homo sapiens (Human), UniProt O00187)', 3.79),
  ('C[C@H](NC(=O)[C@H](N)CCCc1ccccc1)C(=O)NCc1ccc(C(=N)N)cc1.Cl.Cl [1042_1]', 'MASP-2 CCP2-SP (Homo sapiens (Human), UniProt O00187)', 3.08),
  ('C[C@H](NC(=O)[C@H](N)CCCc1ccccc1)C(=O)NCc1ccc(C(=N)N)cc1.Cl.Cl [1042_2]', 'MASP-2 CCP2-SP (Homo sapiens (Human), UniProt O00187)', 3.52);
